Quick reference: pIC50 of the listed items.
system: Raji Burkitt's lymphoma cells; test: Proliferation assay (MTT, 72 h); assay type: cell-based; conditions: Homo sapiens, 72 h incubation, mean ±SD (3 experiments)
pIC50: −log10 of the molar value.
Quantity name: pIC50

1) S=C(N/N=C/c1ccc2ccccc2n1)N1CCOCC1; 7.22
2) Oc1cccc2ccc(/C=N/NC(=S)N3CCN(c4ccccc4)CC3)nc12; 6.72
3) S=C(N/N=C/c1ccc2ccccc2n1)N1CCN(c2ccccc2)CC1; 7.40
4) Oc1ccc2cccnc2c1/C=N/NC(=S)N1CCN(c2ccccc2)CC1; 5.65
5) CCN1CCN(C(=S)N/N=C/c2cnc3ccccc3n2)CC1; 6.96
6) CCN1CCN(C(=S)N/N=C/c2ccc3cccc(O)c3n2)CC1; 6.70
7) S=C(NN=C(c1ccccn1)c1ccccn1)N1CCOCC1; 8.52
8) Oc1cccc2ccc(/C=N/NC(=S)N3CCN(c4cnccn4)CC3)nc12; 7.40
9) S=C(NN=C(c1ccccn1)c1ccccn1)N1CCN(c2ccccc2)CC1; 9.52
10) S=C(NN=C(c1ccccn1)c1ccccn1)N1CCN(c2ccccn2)CC1; 8.89

====

tested on: Raji Burkitt's lymphoma cells; assay: Proliferation assay (MTT, 72 h); format: cell-based; details: Homo sapiens, 72 h incubation, mean ±SD (3 experiments)
Quick reference: log10(IC50) of the listed items.
Quantity name: log10(IC50) (log10 of the value in nM)

1) CN(C(=S)N/N=C/c1ccc2ccccc2n1)C1CCCCC1; 2.91
2) CCN1CCN(C(=S)NN=C(c2ccccn2)c2ccccn2)CC1; 1.90
3) Oc1ccccc1/C=N/NC(=S)N1CCN(c2ccccc2)CC1; 3.29
4) S=C(N/N=C/c1ccc2ccccc2n1)N1CCN(c2ccccn2)CC1; 1.70
5) Oc1ccccc1/C=N/NC(=S)N1CCN(c2ccccn2)CC1; 3.41
6) Oc1cccc2ccc(/C=N/NC(=S)N3CCN(c4ccccn4)CC3)nc12; 2.08
7) CN(C(=S)N/N=C/c1ccc2cccc(O)c2n1)C1CCCCC1; 1.00

====

tested on: SK-N-MC neuroepithelioma cells; assay: Proliferation assay (MTT, 72 h); assay type: cell-based; conditions: Homo sapiens, 72 h incubation, mean ±SD (3 experiments)
Quantity name: IC50

1. S=C(N/N=C/c1ccc2ccccc2n1)N1CCN(c2ccccn2)CC1 [2d]; 520 nM
2. CCN1CCN(C(=S)N/N=C/c2ccc3cccc(O)c3n2)CC1 [3a]; 820 nM
3. S=C(NN=C(c1ccccn1)c1ccccn1)N1CCOCC1 [1c]; 1210 nM
4. S=C(N/N=C/c1ccc2ccccc2n1)N1CCOCC1 [2c]; 1400 nM
5. S=C(N/N=C/c1cnc2ccccc2n1)N1CCN(c2ccccn2)CC1 [5d]; 2330 nM
6. S=C(N/N=C/c1cnc2ccccc2n1)N1CCOCC1 [5c]; 2870 nM
7. Oc1ccc2cccnc2c1/C=N/NC(=S)N1CCN(c2ccccn2)CC1 [4d]; 4540 nM
8. CN(C)C(=S)NN=C(c1ccccn1)c1ccccn1 [Dp44mT, reference compound]; 12 nM
9. CN(C(=S)N/N=C/c1ccc2ccccc2n1)C1CCCCC1 [2f]; 820 nM
10. S=C(NN=C(c1ccccn1)c1ccccn1)N1CCN(c2cnccn2)CC1 [1e]; 70 nM
11. CN(C(=S)N/N=C/c1ccc2cccc(O)c2n1)C1CCCCC1 [3f]; > 6250 nM
12. S=C(NN=C(c1ccccn1)c1ccccn1)N1CCN(c2ccccc2)CC1 [1b]; 50 nM
13. Oc1cccc2ccc(/C=N/NC(=S)N3CCN(c4ccccn4)CC3)nc12 [3d]; > 6250 nM
14. CCN1CCN(C(=S)N/N=C/c2c(O)ccc3cccnc23)CC1 [4a]; 5090 nM
15. CC(=O)N(O)CCCCCNC(=O)CCC(=O)N(O)CCCCCNC(=O)CCC(=O)N(O)CCCCCN [DFO, desferrioxamine, reference compound]; 15100 nM
16. CN(C(=S)N/N=C/c1ccccc1O)C1CCCCC1 [6f]; > 6250 nM
17. CCN1CCN(C(=S)N/N=C/c2ccc3ccccc3n2)CC1 [2a]; 2540 nM
18. CN(C(=S)N/N=C/c1cnc2ccccc2n1)C1CCCCC1 [5f]; 2040 nM
19. Oc1ccc2cccnc2c1/C=N/NC(=S)N1CCN(c2ccccc2)CC1 [4b]; 4460 nM
20. Oc1cccc2ccc(/C=N/NC(=S)N3CCOCC3)nc12 [3c]; > 6250 nM
21. Oc1ccccc1/C=N/NC(=S)N1CCN(c2ccccn2)CC1 [6d]; 5420 nM
22. S=C(N/N=C/c1ccc2ccccc2n1)N1CCN(c2ccccc2)CC1 [2b]; 330 nM
23. S=C(NN=C(c1ccccn1)c1ccccn1)N1CCN(c2ccccn2)CC1 [1d]; 20 nM
24. CCN1CCN(C(=S)NN=C(c2ccccn2)c2ccccn2)CC1 [1a]; 180 nM
25. CN(C(=S)N/N=C/c1c(O)ccc2cccnc12)C1CCCCC1 [4f]; > 6250 nM
26. Oc1ccccc1/C=N/NC(=S)N1CCN(c2ccccc2)CC1 [6b]; 5130 nM
27. Oc1ccc2cccnc2c1/C=N/NC(=S)N1CCN(c2cnccn2)CC1 [4e]; 4170 nM
28. S=C(N/N=C/c1cnc2ccccc2n1)N1CCN(c2cnccn2)CC1 [5e]; 1980 nM
29. Oc1cccc2ccc(/C=N/NC(=S)N3CCN(c4cnccn4)CC3)nc12 [3e]; > 6250 nM
30. Oc1ccc2cccnc2c1/C=N/NC(=S)N1CCOCC1 [4c]; 4970 nM
31. Oc1cccc2ccc(/C=N/NC(=S)N3CCN(c4ccccc4)CC3)nc12 [3b]; > 6250 nM
32. CCN1CCN(C(=S)N/N=C/c2ccccc2O)CC1 [6a]; > 6250 nM
33. Oc1ccccc1/C=N/NC(=S)N1CCN(c2cnccn2)CC1 [6e]; > 6250 nM
34. S=C(N/N=C/c1ccc2ccccc2n1)N1CCN(c2cnccn2)CC1 [2e]; 480 nM
35. S=C(N/N=C/c1cnc2ccccc2n1)N1CCN(c2ccccc2)CC1 [5b]; 3440 nM
36. Oc1ccccc1/C=N/NC(=S)N1CCOCC1 [6c]; > 6250 nM

====

test system: Raji Burkitt's lymphoma cells; experiment: Proliferation assay (MTT, 72 h); format: cell-based; details: Homo sapiens, 72 h incubation, mean ±SD (3 experiments)
Rule for this label: class 1 means IC50 is less than 0.5 µM; class 0 means IC50 is at least 0.5 µM.

1) CN(C(=S)N/N=C/c1cnc2ccccc2n1)C1CCCCC1; class 0
2) S=C(NN=C(c1ccccn1)c1ccccn1)N1CCN(c2cnccn2)CC1; class 1
3) CCN1CCN(C(=S)N/N=C/c2ccc3ccccc3n2)CC1; class 1
4) Oc1ccc2cccnc2c1/C=N/NC(=S)N1CCN(c2cnccn2)CC1; class 0
5) CN(C)C(=S)NN=C(c1ccccn1)c1ccccn1 [Dp44mT, reference compound]; class 1
6) CC(=O)N(O)CCCCCNC(=O)CCC(=O)N(O)CCCCCNC(=O)CCC(=O)N(O)CCCCCN [DFO, desferrioxamine, reference compound]; class 0
7) Oc1ccc2cccnc2c1/C=N/NC(=S)N1CCOCC1; class 0
8) CCN1CCN(C(=S)N/N=C/c2c(O)ccc3cccnc23)CC1; class 0

meta.source: paper PMC4199632
